Each recorded value in this set is attributed to the supplement of paper PMC11451515.

Test system: P12-Ichikawa
ASSAY_COMMENT: cell viability relative to DMSO control; higher = less cytotoxic
CONDITIONS: RPMI 5 mM glucose + 10% dialyzed FBS; 48 h; 0.000781 µM
READOUT: cell viability (%)
Supply the numeric figure in %, leaving out any unit text.

Example entries and their recorded answers appear below.
COC1=C(N2CCNC(C)C2)C(=CC3=C1N(\C=C(C(O)=O)/C3=O)C4CC4)F (centres undefined) ... 94.5
OC1=C(O)C2=C(\C=C/C(=O)O2)C=C1 ... 95.1
CC/C(=C(/c1ccc(O)cc1)c1ccc(OCCNC)cc1)c1ccccc1 ... 115
COc1ccc(Cc2ccc(NC(N)=O)cc2)cc1-c1cccc(Cl)c1 ... 110
COc1c(C)cnc(Cn2cnc3c(Cl)nc(N)nc32)c1C ... 110

Per the record, CN(C)CCOc1cc(-c2cn[nH]c2)ccc1NC(=O)C1COc2ccccc2O1 (centres undefined) has cell viability of 105

For this molecule ( CC1CCC(C(=O)N(c2cc(C#CC(C)(C)C)sc2C(=O)O)C2CCC(O)CC2)CC1 (centres undefined) ), measured cell viability is 85.8

Sample O=C(NCC[S+](=O)([O-])c1ccc(C(F)(F)F)cn1)c1ccc(Cl)cc1 ; cell viability observed: 112

The molecule identified as COc1cc2nc(N(C)CCCNC(=O)C3CCCO3)nc(N)c2cc1OC (centres undefined) registered its cell viability at 70.4

====

System: P12-Ichikawa
ASSAY_COMMENT: cell viability relative to DMSO control; higher = less cytotoxic
CONDITIONS: HPLM + 10% dialyzed FBS; 48 h; 0.569 µM
READOUT: cell viability (%)
Answer format: numeric, % implied, no suffix.

Use the examples below as a reference point.
C[C@]12CC[C@@H]3c4ccc(OC(=O)N(CCCl)CCCl)cc4CC[C@H]3[C@@H]1CC[C@@H]2OP(=O)([O-])[O-].[Na+].[Na+] ... 105
CN(C)c1ccc(O)c2c1C[C@H]1C[C@H]3[C@H](N(C)C)C(O)=C(C(N)=O)C(=O)[C@@]3(O)C(O)=C1C2=O ... 103
CN(CC#C)C/C1=C/C2=CC=CC=C2OC3=CC=CC=C13 ... 90.1
CC[C@H](CC[C@@H](C)[C@H]1CC[C@H]2[C@@H]3C\C=C/4C[C@@H](O)CC[C@]4(C)[C@H]3CC[C@]12C)C(C)C ... 111
COc1nccc(-c2c(-c3ccc(F)cc3)ncn2C2CCNCC2)n1 ... 96

Now examine the next entry.
Sure, the documented cell viability for CC/C(=C(/c1ccc(O)cc1)c1ccc(OCCNC)cc1)c1ccccc1 is 104

====

Test system: P12-Ichikawa
ASSAY_COMMENT: AUC of viability dose-response curve (% viability x log10 dose units); higher = less sensitive
CONDITIONS: RPMI 5 mM glucose + 10% FBS; 48 h
READOUT: AUC of viability dose-response curve

// solved cases for AUC of viability dose-response curve follow
C[C@](O)(COc1ccc(C#N)cc1)C(=O)Nc1ccc(C#N)c(C(F)(F)F)c1 ... 413
COc1ccc(-c2cc3nccn3c(Nc3ncccc3C(N)=O)n2)cc1OC ... 475
CC1(C)O[C@@H]2C[C@H]3[C@@H]4CCC5=CC(=O)C=C[C@]5(C)[C@@]4(F)[C@@H](O)C[C@]3(C)[C@]2(C(=O)CO)O1 ... 288
C\C1=C\C(=O)OC2=C1C=CC(=C2)O ... 457
CC(C)n1nc(-c2cc3cc(O)ccc3[nH]2)c2c(N)ncnc21 ... 332

Given the compound CC1=C(/C=C/C(C)=C/C=C/C(C)=C/C=C/C=C(C)/C=C/C=C(C)/C=C/C2=C(C)CCCC2(C)C)C(C)(C)CCC1 and test system P12-Ichikawa, the measured AUC of viability dose-response curve is 465

Tested on P12-Ichikawa: NC1(C(=O)N[C@@H](CCO)c2ccc(Cl)cc2)CCN(c2ncnc3[nH]ccc23)CC1 . Observed AUC of viability dose-response curve: 362

Param item: CC(C)[C@@H](N(CCCN)C(=O)C1=CC=C(C)C=C1)C/2=N/C3=CC(=CC=C3C(=O)N2CC4=CC=CC=C4)Cl ; param system: P12-Ichikawa; output AUC of viability dose-response curve: 66.9

Param item: O=C(NCC[S+](=O)([O-])c1ccc(C(F)(F)F)cn1)c1ccc(Cl)cc1 ; param system: P12-Ichikawa; output AUC of viability dose-response curve: 455

Record O=C([O-])C(O)Cc1ccc(O)c(O)c1 (stereo not given) has P12-Ichikawa AUC of viability dose-response curve equal to 452

Summary: COc1nccc(-c2c(-c3ccc(F)cc3)ncn2C2CCNCC2)n1 , P12-Ichikawa, AUC of viability dose-response curve = 455

P12-Ichikawa data for Cc1cc(OCCCc2c(C(=O)O)n(Cc3cccnc3)c3c(-c4c(COc5ccc(N6CCN([S+](C)(=O)[O-])CC6)cc5)nn(C)c4C)cccc23)cc(C)c1Cl ; its AUC of viability dose-response curve: 441

Observed AUC of viability dose-response curve on P12-Ichikawa, entry C[C@]12C[C@H](O)[C@H]3[C@@H](CC\C4=C\C(=O)\C=C/[C@]34C)[C@@H]1CC[C@]2(O)C(=O)CO , equals 353

Given the compound CC(N[C@H]1C[C@@H]1c1ccccc1)c1ccc2c(c1)OCCO2 (stereo not given in full) and test system P12-Ichikawa, the measured AUC of viability dose-response curve is 469

The compound OC[C@H]1O[C@@H](O[C@@H]2[C@@H](CO)O[C@](O)(CO)[C@H]2O)[C@H](O)[C@@H](O)[C@H]1O on P12-Ichikawa: AUC of viability dose-response curve was 447
